Catalogue of compounds with associated melting point

Please report the recorded melting point for COc1ccc(CNC(=O)c2ccc(-c3noc(C(F)(F)F)n3)cc2)cc1 . 154 to 159 °C

====

Measured quantity: melting point

Reference set (5 entries):
>  <Molecule>
Cc1cccc(CNC(=O)c2ccc(-c3noc(C(F)(F)F)n3)cc2)c1

>  <melting point>
135 to 141 °C

$$$$
>  <Molecule>
CC(C)CC(C)NC(=O)c1ccc(-c2noc(C(F)(F)F)n2)cc1F (stereo not shown)

>  <melting point>
108.5 to 110.4 °C

$$$$
>  <Molecule>
C#CCNC(=O)c1ccc(-c2noc(C(F)(F)F)n2)cc1F

>  <melting point>
128.2 to 129.4 °C

$$$$
>  <Molecule>
O=C(NCC1CCCC1)c1ccc(-c2noc(C(F)(F)F)n2)cc1F

>  <melting point>
122 to 125.6 °C

$$$$
>  <Molecule>
CC(NC(=O)c1ccc(-c2noc(C(F)(F)F)n2)cc1)c1ccccc1 (stereo not shown)

>  <melting point>
144 to 148 °C

$$$$

Fill in the blank: the reported melting point of CC#CC(C)(C)NC(=O)c1ccc(-c2noc(C(F)(F)F)n2)cc1 is ____. 104 to 105.1 °C

Same thing, different molecule: O=C(NCc1cccs1)c1ccc(-c2noc(C(F)(F)F)n2)cc1F 142.7 to 143 °C

Further, for C=CCNC(=O)c1ccc(-c2noc(C(F)(F)F)n2)cc1F ? 108 to 109.3 °C

Also need O=C(NCC1CCCO1)c1ccc(-c2noc(C(F)(F)F)n2)cc1F (stereo not shown) , thanks. 95.6 to 96.7 °C

And for O=C(NCCOC(F)F)c1ccc(-c2noc(C(F)(F)F)n2)cc1 ? 117 to 120 °C
